Test: chemical genetic growth profiling, strain panel (AID 1159580);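 note: tested at 20 µM; growth read once vehicle control cultures reached saturation at 30 °C; 1 = growth at the plate median or of vehicle wells; lower values mean less growth of the strain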
Conditions: S. cerevisiae deletion strains, growth OD, locus YGL173C, strain kem1, active compounds read low
Hit rate of the full screen: of about 5,500 compounds, about 2,000 (36%) were called active. Inconclusive results (about 18%) are left out. The list shows a part of the results.
readoutKind: normalized growth
No unit in the answer, only the number.

Worked set:
compound	numericValue
COc1ccc(-c2cc(=O)c3c(O)cc(O)cc3o2)cc1	1.01
COc1ccc(-c2cc(=O)c3c(O)c(OC)c(OC)c(OC)c3o2)cc1OC	0.991
CC(C)C[C@@H](NC(=O)OCC1c2ccccc2-c2ccccc21)C(=O)O	1

Measured normalized growth, C[C@H]1O[C@@H](O[C@H]2[C@@H](O)C[C@H](O[C@H]3[C@@H](O)C[C@H](O[C@H]4CC[C@]5(C)C6CC[C@]7(C)[C@@H](C8=CC(=O)OC8)CC[C@]7(O)C6CC[C@@H]5C4)O[C@@H]3C)O[C@@H]2C)C[C@H](O)[C@@H]1O (stereo partly specified) : 0.972

Looking up COC(=O)CC1C(C)(C)C(OC(C)=O)[C@@H]2[C@@H](OC(C)=O)[C@]34O[C@@]2(O)[C@]1(C)C3CC[C@]1(C)C4=CC(=O)O[C@H]1c1ccoc1 (stereo partly specified) , I found its normalized growth recorded as 1

Entry COc1ccc(-c2cc(=O)c3c(O)c(OC)c(O[C@H]4O[C@H](CO[C@@H]5O[C@@H](C)[C@H](O)[C@@H](O)[C@H]5O)[C@@H](O)[C@H](O)[C@H]4O)cc3o2)cc1 — recorded normalized growth = 0.996

Lookup result for C[C@H]1O[C@@H](O[C@H]2[C@@H](O)C[C@H](O[C@H]3[C@@H](O)C[C@H](O[C@H]4CC[C@]5(C)C6C[C@@H](O)[C@]7(C)[C@@H](C8=CC(=O)OC8)CC[C@]7(O)C6CC[C@@H]5C4)O[C@@H]3C)O[C@@H]2C)C[C@H](O)[C@@H]1O (stereo partly specified) ; measured normalized growth: 0.981

For this compound ( CC(=O)OC1CC[C@@]2(C)C(CCC3C2CC[C@]2(C)C(C4=CC(=O)OC4)C(OC(C)=O)CC32O)C1 (stereo partly specified) ), measured normalized growth is 0.987

Query CC(C)=CC1C(CO)C1(C)C (stereo unspecified) yields normalized growth of 1.02

Measured normalized growth of C[C@]12CCC3C(CC[C@]4(O)C[C@@H](O)CC[C@]34C=O)[C@@]1(O)CCC2C1=CC(=O)OC1 (stereo partly specified) : 0.994

Notebook: COc1cc(-c2cc(=O)c3c(O)c(OC)c(OC)c(OC)c3o2)cc(OC)c1OC , normalized growth read as 1.01
